# Assay target: SARS-CoV-2 Spike Protein (RBD)(R319-F541).hFc (mAb10622-L1) (SARS-CoV-2)
# Method: Luminex bead binding, supernatant
Quantity kind: Binding signal (MFI)
Your answer should be a plain number; it is taken to be in MFI.

Take a look at these entries with their results.
[
  {
    "Binder": "mAb10998 (antibody, V domains shown) VH: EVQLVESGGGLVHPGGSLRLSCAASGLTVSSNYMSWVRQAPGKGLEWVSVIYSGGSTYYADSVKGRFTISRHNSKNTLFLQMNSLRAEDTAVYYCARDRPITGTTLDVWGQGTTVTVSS VL: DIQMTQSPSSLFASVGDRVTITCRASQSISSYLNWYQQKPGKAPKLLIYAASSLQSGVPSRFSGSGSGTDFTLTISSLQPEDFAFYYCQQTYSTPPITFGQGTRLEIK",
    "Quantity kind": "Binding signal (MFI)",
    "Experimental value": 1740
  },
  {
    "Binder": "mAb11004 (antibody, V domains shown) VH: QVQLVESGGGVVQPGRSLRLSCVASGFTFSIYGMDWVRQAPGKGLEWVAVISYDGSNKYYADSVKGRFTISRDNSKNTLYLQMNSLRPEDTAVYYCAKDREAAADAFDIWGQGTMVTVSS VL: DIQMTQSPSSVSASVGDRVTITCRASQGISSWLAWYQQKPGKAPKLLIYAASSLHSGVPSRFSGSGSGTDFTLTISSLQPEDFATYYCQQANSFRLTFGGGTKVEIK",
    "Quantity kind": "Binding signal (MFI)",
    "Experimental value": 4880
  }
]

Asked: Entry mAb11008 (antibody, V domains shown) VH: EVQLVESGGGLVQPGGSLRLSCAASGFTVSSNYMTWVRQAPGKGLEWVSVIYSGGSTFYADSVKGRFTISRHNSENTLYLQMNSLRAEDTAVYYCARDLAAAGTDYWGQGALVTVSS VL: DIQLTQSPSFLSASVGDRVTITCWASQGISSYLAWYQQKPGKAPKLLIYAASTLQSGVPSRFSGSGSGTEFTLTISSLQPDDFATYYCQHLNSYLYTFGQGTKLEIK has what Binding signal (MFI)?
Given back: 2570
